Each item that follows carries a reported log2 ratio of Biotin-Ahx-Ub-VS probe labelling.
- TEST_SYSTEM: UCHL3 (UniProt P15374)
- Sequence (P15374 whole entry, the tested form may be a part): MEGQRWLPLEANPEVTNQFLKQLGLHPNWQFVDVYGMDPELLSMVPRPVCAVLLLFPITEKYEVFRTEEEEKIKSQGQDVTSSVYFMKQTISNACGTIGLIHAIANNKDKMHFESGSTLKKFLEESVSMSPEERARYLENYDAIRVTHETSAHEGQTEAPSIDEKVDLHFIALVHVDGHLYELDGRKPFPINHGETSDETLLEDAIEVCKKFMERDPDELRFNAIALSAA
- PROCEDURE_TEXT: log2 ratio of Biotin-Ahx-Ub-VS probe labelling (fragment/DMSO); higher = less target engagement (more negative = stronger competition), active = hit call of the paper (q ≤ 0.05, log2 ratio ≤ -1)
- TEST_CONTEXT: compound concentration: 200 uM; treatment time: 3 h
Respond with the number and no other words.

In the examples that follow, each entry is paired with its recorded log2 ratio of Biotin-Ahx-Ub-VS probe labelling.
1) Cl.O=C(CCl)N1CCC(n2nc3ccccc3n2)CC1 ... -0.23
2) CN(C)S(=O)(=O)c1ccccc1CNC(=O)CCl ... 0.0942
3) O=C(CCl)N1CCCC2CCCCC21 (stereo unspecified) ... 0.0783
4) O=C(CCl)N(C1=CCCCC1)C1CC1 ... 0.218
5) CN(C)C(=O)c1ccc(CNC(=O)CCl)cc1 ... 0.248
6) Cc1conc1C1CN(C(=O)CCl)C1 ... -0.637
7) O=C(CCl)NC(Cn1ccccc1=O)c1ccccc1 (stereo unspecified) ... 0.233
8) N#Cc1ccc(Cl)cc1NC(=O)CCl ... 0.385

### Prompt What measured log2 ratio of Biotin-Ahx-Ub-VS probe labelling goes with O=C(CCl)Nc1nnc(CC(F)(F)F)o1 ?
### Response -0.128

### Prompt What measured log2 ratio of Biotin-Ahx-Ub-VS probe labelling goes with N#Cc1ccccc1N1CCN(C(=O)CCl)CC1 ?
### Response -0.341

### Prompt What measured log2 ratio of Biotin-Ahx-Ub-VS probe labelling goes with Cl.O=C(CCl)N1CC(c2ccc(Br)cn2)C1 ?
### Response -0.211

---

Each item that follows carries a reported log2 ratio of Biotin-Ahx-Ub-VS probe labelling.
- TEST_SYSTEM: USP22 (UniProt Q9UPT9)
- Sequence (Q9UPT9 whole entry, the tested form may be a part): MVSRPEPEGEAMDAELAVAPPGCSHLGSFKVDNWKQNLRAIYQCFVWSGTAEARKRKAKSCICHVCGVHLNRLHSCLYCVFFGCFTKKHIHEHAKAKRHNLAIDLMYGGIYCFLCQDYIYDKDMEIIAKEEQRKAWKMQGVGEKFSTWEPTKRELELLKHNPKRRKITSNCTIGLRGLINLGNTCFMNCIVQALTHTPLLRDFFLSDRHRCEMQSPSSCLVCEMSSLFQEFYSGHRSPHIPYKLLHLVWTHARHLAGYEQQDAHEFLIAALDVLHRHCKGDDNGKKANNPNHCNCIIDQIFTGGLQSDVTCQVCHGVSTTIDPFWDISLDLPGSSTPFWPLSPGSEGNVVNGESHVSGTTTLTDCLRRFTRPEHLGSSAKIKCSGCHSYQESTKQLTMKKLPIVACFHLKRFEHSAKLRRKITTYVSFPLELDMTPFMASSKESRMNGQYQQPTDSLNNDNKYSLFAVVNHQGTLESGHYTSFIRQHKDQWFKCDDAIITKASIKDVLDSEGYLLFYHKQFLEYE
- PROCEDURE_TEXT: log2 ratio of Biotin-Ahx-Ub-VS probe labelling (fragment/DMSO); higher = less target engagement (more negative = stronger competition), active = hit call of the paper (q ≤ 0.05, log2 ratio ≤ -1)
- TEST_CONTEXT: compound concentration: 200 uM; treatment time: 3 h
Respond with the number and no other words.

### Prompt Which measured log2 ratio of Biotin-Ahx-Ub-VS probe labelling belongs to Cl.Cn1c(CNC(=O)CCl)nc2cccnc21 , tested on USP22 (UniProt Q9UPT9)?
### Response -0.175

### Prompt Which measured log2 ratio of Biotin-Ahx-Ub-VS probe labelling belongs to O=C(CCl)NC1(c2ccc3c(c2)OCCO3)CCCC1 , tested on USP22 (UniProt Q9UPT9)?
### Response 0.0133

### Prompt Which measured log2 ratio of Biotin-Ahx-Ub-VS probe labelling belongs to Cc1ccc(CNC(=O)CCl)nc1C.Cl , tested on USP22 (UniProt Q9UPT9)?
### Response 0.00229

### Prompt Which measured log2 ratio of Biotin-Ahx-Ub-VS probe labelling belongs to O=C(CCl)Nc1ccc(N2CCCC2=O)cc1 , tested on USP22 (UniProt Q9UPT9)?
### Response 0.36

### Prompt Which measured log2 ratio of Biotin-Ahx-Ub-VS probe labelling belongs to O=C(CCl)N1CCOC2(CCC2)C1 , tested on USP22 (UniProt Q9UPT9)?
### Response 0.184
